Target: UniProtKB Q9NR96
Sequence (Q9NR96 26-1032): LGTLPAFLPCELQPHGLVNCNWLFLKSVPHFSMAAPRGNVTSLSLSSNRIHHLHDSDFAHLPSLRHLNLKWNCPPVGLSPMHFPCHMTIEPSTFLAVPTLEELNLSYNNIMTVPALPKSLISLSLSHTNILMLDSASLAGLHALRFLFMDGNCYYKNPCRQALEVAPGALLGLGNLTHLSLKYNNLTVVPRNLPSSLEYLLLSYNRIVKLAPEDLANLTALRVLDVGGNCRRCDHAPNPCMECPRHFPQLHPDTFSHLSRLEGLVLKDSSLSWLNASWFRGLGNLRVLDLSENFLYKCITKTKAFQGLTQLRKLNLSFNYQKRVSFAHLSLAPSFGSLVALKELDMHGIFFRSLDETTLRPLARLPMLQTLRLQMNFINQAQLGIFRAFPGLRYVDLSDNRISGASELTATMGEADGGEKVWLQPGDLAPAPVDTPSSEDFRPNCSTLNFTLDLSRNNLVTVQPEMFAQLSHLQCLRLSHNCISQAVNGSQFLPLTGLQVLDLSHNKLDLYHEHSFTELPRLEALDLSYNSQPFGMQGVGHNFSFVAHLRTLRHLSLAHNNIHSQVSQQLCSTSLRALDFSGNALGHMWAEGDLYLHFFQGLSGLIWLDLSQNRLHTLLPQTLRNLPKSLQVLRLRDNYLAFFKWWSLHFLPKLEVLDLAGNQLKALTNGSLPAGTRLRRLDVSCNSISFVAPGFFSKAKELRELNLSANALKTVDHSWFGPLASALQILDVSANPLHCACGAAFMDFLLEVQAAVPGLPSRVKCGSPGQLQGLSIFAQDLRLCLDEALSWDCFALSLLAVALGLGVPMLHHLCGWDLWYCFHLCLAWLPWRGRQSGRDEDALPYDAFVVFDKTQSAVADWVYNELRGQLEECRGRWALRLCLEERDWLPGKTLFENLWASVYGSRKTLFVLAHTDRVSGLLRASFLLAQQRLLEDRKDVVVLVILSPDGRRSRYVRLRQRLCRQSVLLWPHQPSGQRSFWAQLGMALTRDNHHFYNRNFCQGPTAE
Experiment: TLR9 inhibition reporter assay (HEK-Blue cells, SEAP reporter, ODN2006 stimulation)
Conditions: HEK-Blue cells overexpressing human TLR9, SEAP reporter, ODN2006 5 nM
VALUE TYPE: pIC50
Just so you know, pIC50 here is -log10 of the concentration in molar units; reply with that number alone.

Below: 2 compounds and their reported pIC50.
COMPOUND | READING
Cc1c(-c2[nH]c3ccc(CC4CN(CCS(C)(=O)=O)C4)cc3c2C(C)C)cn(C)c(=O)c1C | 5.04
COc1cc(-c2[nH]c3ccc(CC4CN(C(=O)CN(C)C)C4)cc3c2C(C)C)cn2ncnc12 | 5.13

The record that follows has no pIC50 shown yet.
IN: Give a short answer stating reported pIC50 for COc1cc(-c2[nH]c3ccc(C4CCC(NC(=O)CN(C)C)CC4)cc3c2C(C)C)cn2ncnc12 (stereo not drawn) [Example 127] .
OUT: 5.50
